- system-name: T1, human MerTK on M2c-differentiated human macrophages (human, UniProt Q12866 21-999)
- T1 sequence: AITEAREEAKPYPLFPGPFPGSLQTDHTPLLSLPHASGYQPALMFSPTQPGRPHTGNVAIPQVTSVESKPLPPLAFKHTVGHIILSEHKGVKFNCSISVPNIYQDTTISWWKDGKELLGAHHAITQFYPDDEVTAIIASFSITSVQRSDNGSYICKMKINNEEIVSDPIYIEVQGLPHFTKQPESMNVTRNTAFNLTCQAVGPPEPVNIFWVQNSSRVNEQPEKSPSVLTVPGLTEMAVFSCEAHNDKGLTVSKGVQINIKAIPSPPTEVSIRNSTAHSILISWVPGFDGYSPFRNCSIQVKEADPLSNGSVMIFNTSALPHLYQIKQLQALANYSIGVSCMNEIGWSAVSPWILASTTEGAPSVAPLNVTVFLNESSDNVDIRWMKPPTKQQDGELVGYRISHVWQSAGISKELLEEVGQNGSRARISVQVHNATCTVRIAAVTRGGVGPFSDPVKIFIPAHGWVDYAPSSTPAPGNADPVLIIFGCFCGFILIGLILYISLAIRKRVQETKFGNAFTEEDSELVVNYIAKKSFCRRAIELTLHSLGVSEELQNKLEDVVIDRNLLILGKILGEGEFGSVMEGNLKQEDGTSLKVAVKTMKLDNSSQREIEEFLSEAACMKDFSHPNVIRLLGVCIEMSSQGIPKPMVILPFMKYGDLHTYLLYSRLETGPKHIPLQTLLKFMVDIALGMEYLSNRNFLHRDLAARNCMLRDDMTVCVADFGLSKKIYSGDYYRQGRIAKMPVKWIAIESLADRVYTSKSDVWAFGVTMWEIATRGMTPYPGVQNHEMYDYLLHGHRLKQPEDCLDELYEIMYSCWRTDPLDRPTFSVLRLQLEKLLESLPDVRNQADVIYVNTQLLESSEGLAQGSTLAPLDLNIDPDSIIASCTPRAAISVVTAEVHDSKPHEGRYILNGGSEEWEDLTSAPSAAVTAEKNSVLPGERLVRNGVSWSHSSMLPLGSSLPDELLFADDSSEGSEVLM
- experiment-notes: cell-based or functional assay
measured-property: Average Efferocytosis blocking IC50

[
  {
    "binder": "bivalent anti-MerTK antibody MTK-33.11 (full IgG) (antibody, V domains shown) VH: QVQLVQSGAEVKKPGASVKVSCKASGYTFTSYWMHWVRQAPGQGLEWIGVIDPSDNYINYNQKFQGRVTMTRDTSTSTVYMELSSLRSEDTAVYYCAREAWTRGYFDYWGQGTLVTVSS VL: DIQMTQSPSSLSASVGDRVTITCQASRSVRNTVAWYQQKPGKAPKLLIYYASNRYTGVPSRFSGSGSGTDFTFTISSLQPEDIATYYCQQDYRSPFTFGQGTKLEIKR",
    "meas-value": "0.341 nM"
  },
  {
    "binder": "monovalent anti-MerTK antibody MTK-33.11 (antibody, V domains shown) VH: QVQLVQSGAEVKKPGASVKVSCKASGYTFTSYWMHWVRQAPGQGLEWIGVIDPSDNYINYNQKFQGRVTMTRDTSTSTVYMELSSLRSEDTAVYYCAREAWTRGYFDYWGQGTLVTVSS VL: DIQMTQSPSSLSASVGDRVTITCQASRSVRNTVAWYQQKPGKAPKLLIYYASNRYTGVPSRFSGSGSGTDFTFTISSLQPEDIATYYCQQDYRSPFTFGQGTKLEIK",
    "meas-value": "4.45 nM"
  },
  {
    "binder": "bivalent anti-MerTK antibody MTK-16.2 (full IgG) (antibody, V domains shown) VH: QVQLVQSGSELKKPGASVKVSCKASGYTFTNHGMNWVRQAPGQGLEWMGWINTYTGEPTYADDFKGRFVFSLDTSVSTAYLQISSLKAEDTAVYYCARKGVTAARYFDYWGQGTLVTVSS VL: DIQMTQSPSSLSASVGDRVTITCRASQNVRTAVAWYQQKPGKAPKRLIYLASNRHTGVPSRFSGSGSGTEFTLTISNLQPEDFATYYCLQHWNYPLTFGGGTKLEIKR",
    "meas-value": "0.436 nM"
  }
]
